biological target: Glycine receptor subunit alpha-1 (Homo sapiens, UniProt P23415); assay: Antagonist activity at human glycine receptor subunit alpha-1 expressed in HEK293 cells assessed as reduction in glycine-induced whole cell currents by patch-clamp technique; assay type: cell-based
Sequence (P23415 whole entry): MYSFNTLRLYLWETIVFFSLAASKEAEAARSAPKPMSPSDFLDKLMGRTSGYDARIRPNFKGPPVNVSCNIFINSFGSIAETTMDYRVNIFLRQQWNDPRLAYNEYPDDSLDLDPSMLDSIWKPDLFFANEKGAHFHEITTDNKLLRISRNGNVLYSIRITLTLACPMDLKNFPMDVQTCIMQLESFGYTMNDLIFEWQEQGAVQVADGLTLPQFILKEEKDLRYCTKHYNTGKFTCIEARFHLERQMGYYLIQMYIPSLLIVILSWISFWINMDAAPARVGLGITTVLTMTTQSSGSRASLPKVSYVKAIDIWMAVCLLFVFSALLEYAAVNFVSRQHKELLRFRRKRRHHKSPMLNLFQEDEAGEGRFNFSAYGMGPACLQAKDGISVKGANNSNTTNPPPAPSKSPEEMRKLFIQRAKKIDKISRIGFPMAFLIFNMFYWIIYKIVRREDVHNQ
assay endpoint: IC50
Put down the number, then write its unit next to it.

{"sample smiles": "CCC(=O)N[C@@H]1C(=O)N2c3ccccc3[C@@]34CCN5CC6=CCO[C@@H]1[C@@H]([C@H]23)[C@H]6C[C@H]54", "IC50": "0.173 µM"}

Turning now to a further molecule:
# IC50 (molecule: `N[C@@H]1C(=O)N2c3ccccc3[C@@]34CCN5CC6=CCO[C@@H]1[C@@H]([C@H]23)[C@H]6C[C@H]54` ) is 0.194 µM

Values from ChEMBL document CHEMBL4340578
